Biological target: T1, cynoCD46-His (cynomolgus, UniProt A0A2K5WCL8 35-328)
T1 construct: extracellular domain; Immobilised by amine coupling on the SPR chip; not shown: His tag
T1 sequence: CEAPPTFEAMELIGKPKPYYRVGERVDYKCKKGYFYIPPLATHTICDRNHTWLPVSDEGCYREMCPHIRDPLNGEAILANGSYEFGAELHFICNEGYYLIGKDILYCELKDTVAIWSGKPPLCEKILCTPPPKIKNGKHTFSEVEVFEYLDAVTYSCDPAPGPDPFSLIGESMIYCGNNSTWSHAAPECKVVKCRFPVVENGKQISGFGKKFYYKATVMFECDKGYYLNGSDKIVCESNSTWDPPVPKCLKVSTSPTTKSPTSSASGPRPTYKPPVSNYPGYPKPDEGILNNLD
Test: SPR, cynoCD46-His immobilised, antibody as analyte, pH 6.0
readout_type: koff (s⁻¹)
Response body: numeric value in s⁻¹, unit text excluded.

// known answers, use as guide
binder	koff, s⁻¹
BAP133-2-02-12 (antibody, V domains shown, also called BAP133-02-02-12; CPE hit BAP133-2-02-12) VH: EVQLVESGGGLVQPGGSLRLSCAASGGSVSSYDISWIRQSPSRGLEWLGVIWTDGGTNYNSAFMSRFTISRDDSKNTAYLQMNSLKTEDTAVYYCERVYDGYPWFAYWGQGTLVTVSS VL: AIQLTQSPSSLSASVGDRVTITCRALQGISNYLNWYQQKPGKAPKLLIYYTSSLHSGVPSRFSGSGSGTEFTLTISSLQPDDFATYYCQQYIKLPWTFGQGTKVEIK	0.00184
Benchmark (BM) BA-133-00-01 (antibody, V domains shown, the killing assays used the ADC form; Conjugation site and payload are not described; also called BM (bench mark)) VH: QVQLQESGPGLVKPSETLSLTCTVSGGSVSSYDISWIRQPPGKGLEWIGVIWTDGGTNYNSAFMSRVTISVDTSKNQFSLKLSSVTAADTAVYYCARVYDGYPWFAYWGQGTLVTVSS VL: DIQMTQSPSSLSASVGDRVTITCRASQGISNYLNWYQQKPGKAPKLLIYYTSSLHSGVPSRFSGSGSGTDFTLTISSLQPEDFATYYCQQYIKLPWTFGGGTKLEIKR	0.00115
BA-133-04-02 (antibody, V domains shown, also called CPE hit BA133-04-02) VH: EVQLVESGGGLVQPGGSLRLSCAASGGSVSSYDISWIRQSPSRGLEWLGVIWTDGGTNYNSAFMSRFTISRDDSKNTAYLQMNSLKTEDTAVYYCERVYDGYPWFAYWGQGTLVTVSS VL: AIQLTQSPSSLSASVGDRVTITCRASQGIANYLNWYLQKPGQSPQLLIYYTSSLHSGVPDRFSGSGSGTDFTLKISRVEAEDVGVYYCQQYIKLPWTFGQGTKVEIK	0.000835
BA-133-04-01 (antibody, V domains shown, also called CPE hit BA133-04-01) VH: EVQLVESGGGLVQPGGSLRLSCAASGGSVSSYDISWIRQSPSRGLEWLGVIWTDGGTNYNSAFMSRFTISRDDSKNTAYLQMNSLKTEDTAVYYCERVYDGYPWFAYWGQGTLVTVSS VL: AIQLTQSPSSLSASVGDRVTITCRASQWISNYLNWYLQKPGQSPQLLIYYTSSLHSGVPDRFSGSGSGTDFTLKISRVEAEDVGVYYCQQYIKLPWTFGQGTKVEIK	0.000757
BA-133-04-04 (antibody, V domains shown, the killing assays used the ADC form; also called CPE hit BA133-04-04) VH: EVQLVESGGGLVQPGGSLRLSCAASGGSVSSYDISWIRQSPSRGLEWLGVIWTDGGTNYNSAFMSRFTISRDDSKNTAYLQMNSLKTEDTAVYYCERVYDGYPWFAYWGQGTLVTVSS VL: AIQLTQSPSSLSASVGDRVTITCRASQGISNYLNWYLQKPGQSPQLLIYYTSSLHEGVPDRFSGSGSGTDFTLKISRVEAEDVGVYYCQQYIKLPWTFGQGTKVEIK	0.00146

Item: BA-133-04-03 (antibody, V domains shown, also called CPE hit BA133-04-03) VH: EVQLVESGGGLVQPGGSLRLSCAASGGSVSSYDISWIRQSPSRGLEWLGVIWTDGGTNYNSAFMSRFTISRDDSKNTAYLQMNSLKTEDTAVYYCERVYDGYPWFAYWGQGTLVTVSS VL: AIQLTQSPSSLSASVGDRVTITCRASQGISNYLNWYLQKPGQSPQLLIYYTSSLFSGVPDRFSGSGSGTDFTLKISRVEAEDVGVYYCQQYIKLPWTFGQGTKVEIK | koff: 0.00143

Value of koff reported for the binder BAP133-2-03-03-SL (antibody, V domains shown, the killing assays used the ADC form; also called BAP133-02-03-03-SL; CPE hit BAP133-2-03-03-SL) VH: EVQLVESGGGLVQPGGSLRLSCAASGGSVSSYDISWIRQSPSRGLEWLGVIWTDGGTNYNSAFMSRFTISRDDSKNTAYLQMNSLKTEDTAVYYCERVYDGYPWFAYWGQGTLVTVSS VL: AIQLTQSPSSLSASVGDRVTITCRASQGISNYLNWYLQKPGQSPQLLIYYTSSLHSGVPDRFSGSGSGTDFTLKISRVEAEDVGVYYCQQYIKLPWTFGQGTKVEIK is 0.00255
